- Test system: SK-MEL-28 melanoma
- measurement.notes: NCI tumour cell line growth inhibition, 48 h
metric: TGI

compound	subject.of.test	TGI
Cc1cn(CCOCCOC(=O)NC(CCCNC(N)=O)C(=O)O)c(=O)[nH]c1=O (stereo not drawn)	SK-MEL-28 melanoma	> 100 µM
Cc1cccc(N=C2NC(=O)C(CC(=O)Nc3ccc(C)cc3C)S2)c1 (stereo not drawn)	SK-MEL-28 melanoma	> 100 µM
CCC[CH2][Sn]1([CH2]CCC)[O]C(=O)c2ccc(N)cc2[O]1	SK-MEL-28 melanoma	1.48 µM

Could I get TGI for every one of these entries?
1. Nc1cc2[nH]cnc2c(=O)[nH]1
2. C=C(CCOC)CCC1CCCCC(=C)[C@H]1O (stereo partly drawn)

Out:
1: > 300 µM; 2: > 100 µM
